Assay: in vivo
Details: male, Sprague-Dawley, rat, po
Rule: Yes for bioavailability not less than 40%, No for anything less.

CCCCCn1/c(=N/C(=O)c2cc(C(F)(F)F)ccc2OCC(C)(C)O)cc(C(C)(C)C)n1C :: No
CCCCCn1/c(=N/C(=O)c2cc(C#N)ccc2OCC(C)(C)O)cc(C(C)(C)C)n1C :: No
C[C@@H](O)COc1ccc(C(F)(F)F)cc1C(=O)/N=c1\cc(C(C)(C)C)n(C)n1C[C@H]1CCCO1 :: No
Cn1c(C(C)(C)C)c/c(=N\C(=O)c2cc(C(F)(F)F)ccc2OCC(C)(C)O)n1CC1CC1 :: Yes

Continue with the molecule presented below.
Task: Is the recorded value of bioavailability equal to or greater than 40% for this molecule? Cn1c(C(C)(C)C)c/c(=N\C(=O)c2cc(C#N)ccc2OCC(C)(C)O)n1CC1CCC1
Result: Yes

The origin of these recorded values is patent US8188135B2.
